Assay text: in vivo
Parameters: species or system mice
Test context: male, NOD.Cg-Rag1tm1Mom Il2rgtm1Wjl/SzJ (NRG), mouse, iv, total radioactivity, Ratio Tumor-to-Muscle
Where a SMILES comes first, the peptide text is derived from it. Bridges are numbered along the chain shown (N, C = ends). [ ]: non-standard residue; d: D form. The star is where a group is joined. X1 = O=C(O)CN1CCN(CC(=O)O)CCN(CC(=O)N[C@@H](CS(=O)(=O)O)C(=O)N[C@@H](CCCCNC(=O)CCCc2ccc(I)cc2)C(=O)*)CCN(CC(=O)O)CC1; 2Nal = N[C@@H](Cc1ccc2ccccc2c1)C(=O)O; Lys(iPr) = CC(C)NCCCC[C@H](N)C(=O)O
Readout type: tissue to tissue ratio at 3 h

INSERT INTO measurements (molecule, readout_type, endpoint_result) VALUES
  ('CC(C)NCCCC[C@H](NC(=O)[C@H]1CCC(=O)N[C@@H](CCCCNC(=O)[C@H](CCCCNC(=O)CCCc2ccc(I)cc2)NC(=O)[C@H](CS(=O)(=O)O)NC(=O)CN2CCN(CC(=O)O)CCN(CC(=O)O)CCN(CC(=O)O)CC2)C(=O)N[C@@H](Cc2ccc(O)cc2)C(=O)N[C@@H](CCCCNC(C)C)C(=O)N[C@H](CCCNC(=N)N)C(=O)N[C@@H](Cc2ccc3ccccc3c2)C(=O)N[C@H](C)C(=O)N1)C(N)=O [[^68Ga]Ga-BL34L11, metal not drawn] (K(X1)Y[Lys(iPr)][dR][2Nal][dA][dE][Lys(iPr)]-NH2; lactam N-7)', 'tissue to tissue ratio at 3 h', 10.5);

====

Listing of recorded tissue uptake at 1 h by entry.
Assay text: in vivo
Set-up: species or system mice
Test context: male, NOD.Cg-Rag1tm1Mom Il2rgtm1Wjl/SzJ (NRG), mouse, iv, total radioactivity, Biodistribution: Lungs
Where a SMILES comes first, the peptide text is derived from it. Bridges are numbered along the chain shown (N, C = ends). Side-chain parts run from the residue outwards. [ ]: non-standard residue; d: D form. The star is where a group is joined. X5 = O=C(O)CN1CCN(CC(=O)O)CCN(CC(=O)N[C@@H](CS(=O)(=O)O)C(=O)N[C@@H](CCCCNC(=O)CCCc2ccc(Cl)cc2)C(=O)*)CCN(CC(=O)O)CC1; X7 = COc1ccc(CCCC(=O)NCCCC[C@H](NC(=O)CN2CCN(CC(=O)O)CCN(CC(=O)O)CCN(CC(=O)O)CC2)C(=O)*)cc1; 2Nal = N[C@@H](Cc1ccc2ccccc2c1)C(=O)O; Lys(iPr) = CC(C)NCCCC[C@H](N)C(=O)O; Cya = N[C@@H](CS(=O)(=O)O)C(=O)O
Readout type: tissue uptake at 1 h

INSERT INTO results (compound, endpoint_result) VALUES
  ('CC(C)NCCCC[C@H](NC(=O)[C@H]1CCC(=O)N[C@@H](CCCCNC(=O)[C@H](CCCCNC(=O)CCCc2ccc(Cl)cc2)NC(=O)[C@H](CS(=O)(=O)O)NC(=O)CN2CCN(CC(=O)O)CCN(CC(=O)O)CCN(CC(=O)O)CC2)C(=O)N[C@@H](Cc2ccc(O)cc2)C(=O)N[C@@H](CCCCNC(C)C)C(=O)N[C@H](CCCNC(=N)N)C(=O)N[C@@H](Cc2ccc3ccccc3c2)C(=O)N[C@H](C)C(=O)N1)C(N)=O [[^68Ga]Ga-BL34L16, metal not drawn] (K(X5)Y[Lys(iPr)][dR][2Nal][dA][dE][Lys(iPr)]-NH2; lactam N-7)', '5.9 %ID/g'),
  ('COc1ccc(CCCC(=O)NCCCC[C@H](NC(=O)CN2CCN(CC(=O)O)CCN(CC(=O)O)CCN(CC(=O)O)CC2)C(=O)N[C@@H](CS(=O)(=O)O)C(=O)NCCCC[C@@H]2NC(=O)CC[C@H](C(=O)N[C@@H](CCCCNC(C)C)C(N)=O)NC(=O)[C@@H](C)NC(=O)[C@H](Cc3ccc4ccccc4c3)NC(=O)[C@@H](CCCNC(=N)N)NC(=O)[C@H](CCCCNC(C)C)NC(=O)[C@H](Cc3ccc(O)cc3)NC2=O)cc1 [[68Ga]Ga-BL34L6, metal not drawn] (K([Cya-X7])Y[Lys(iPr)][dR][2Nal][dA][dE][Lys(iPr)]-NH2; lactam N-7)', '0.99 %ID/g');
